Listed here: items and their measured IC50.
targetOfAssay: Human immunodeficiency virus type 1 reverse transcriptase (Human immunodeficiency virus 1)
test: Inhibition of purified recombinant HIV-1 reverse transcriptase
quantityName: IC50 (nM)

chemSmiles | quantityName | readoutUnits | resultNumber
COc1ccc(OC)c(CCNC(=S)Nc2ccc(Br)cn2)c1 | IC50 | nM | 100
S=C(NCCC1=CCCCC1)Nc1ccc(Cl)cn1 | IC50 | nM | 3700
S=C(NCCc1ccccc1Cl)Nc1ccc(Br)cn1 | IC50 | nM | 700
Fc1cccc(CCNC(=S)Nc2ccc(Br)cn2)c1 | IC50 | nM | 700
CCOCn1c(Cc2ccccc2)c(C(C)C)c(=O)[nH]c1=O | IC50 | nM | 800
Fc1ccc(CCNC(=S)Nc2ccc(Br)cn2)cc1 | IC50 | nM | 6400
Fc1ccccc1CCNC(=S)Nc1ccc(Br)cn1 | IC50 | nM | 600

###

Listed here: items and their measured IC50.
test: Inhibitory activity of compound on p24 production in peripheral blood mononuclear cells infected with HIV strain RT-MDR.
Format: functional
assayContext: Homo sapiens
quantityName: IC50

compound | quantityName | result
Cc1ccnc2c1NC(=O)c1cccnc1N2C1CC1 [NEVIRAPINE] | IC50 | 5 µM
S=C(NCCc1ccccn1)Nc1ccc(Br)cn1 [TROVIRDINE] | IC50 | 0.02 µM
Fc1ccccc1CCNC(=S)Nc1ccc(Br)cn1 | IC50 | 0.005 µM
Fc1cccc(CCNC(=S)Nc2ccc(Br)cn2)c1 | IC50 | 0.02 µM
Cc1cn([C@H]2C[C@H](N=[N+]=[N-])[C@@H](CO)O2)c(=O)[nH]c1=O [ZIDOVUDINE] | IC50 | 0.15 µM
COc1ccc(OC)c(CCNC(=S)Nc2ccc(Br)cn2)c1 | IC50 | 0.005 µM
CCOCn1c(Cc2ccccc2)c(C(C)C)c(=O)[nH]c1=O [EMIVIRINE] | IC50 | 0.3 µM
CC(C)Nc1cccnc1N1CCN(C(=O)c2cc3cc(NS(C)(=O)=O)ccc3[nH]2)CC1 [DELAVIRDINE] | IC50 | 0.4 µM
S=C(NCCc1ccccc1Cl)Nc1ccc(Br)cn1 | IC50 | 0.004 µM

###

test: Inhibitory activity of compound on p24 production in peripheral blood mononuclear cells infected with HIV strain HTLV IIIB wild type.
Format: functional
assayContext: Homo sapiens
quantityName: IC50

chemSmiles | quantityName | result
S=C(NCCc1ccccc1Cl)Nc1ccc(Br)cn1 | IC50 | < 10 nM
COc1ccc(OC)c(CCNC(=S)Nc2ccc(Br)cn2)c1 | IC50 | < 1 nM
Fc1ccccc1CCNC(=S)Nc1ccc(Br)cn1 | IC50 | < 10 nM
Fc1cccc(CCNC(=S)Nc2ccc(Br)cn2)c1 | IC50 | < 1 nM
